Measured IC50, listed per entry.
- subject.of.test: type 1 human 5α-reductase (HRED1) (Homo sapiens)
- Sequence (P18405 whole entry): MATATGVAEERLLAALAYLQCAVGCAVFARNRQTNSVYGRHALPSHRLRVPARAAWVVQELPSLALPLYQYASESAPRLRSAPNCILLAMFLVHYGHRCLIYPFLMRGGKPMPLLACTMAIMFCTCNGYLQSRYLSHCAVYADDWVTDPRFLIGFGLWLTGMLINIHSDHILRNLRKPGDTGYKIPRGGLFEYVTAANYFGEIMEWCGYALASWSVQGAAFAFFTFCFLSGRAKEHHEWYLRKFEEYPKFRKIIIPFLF
- protocol.description: Cell free assay of 5α-reductase, microsomes of rat 1A cells expressing type 1 isoenzyme (HRED1);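 further: microsomes from rat 1A cells expressing human type 1 5α-reductase, conversion of radiolabeled testosterone to dihydrotestosterone quantified by thin layer chromatography with radioanalytic scanning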
- Assay type: biochemical
- Set-up: expressed in transfected cells; host or cells: rat 1A cells infected with pMV7 retrovirus; microsomes
- condition.parameters: read-out: HRED1 IC50; cell free assay; Table 4 quinones

# query.smiles, output.unit, operator, IC50
measured = [
    ("Oc1ccc2c(O)c3ccccc3cc2c1O", "µM", "=", 4),
    ("O=C1c2ccccc2C(=O)c2ccccc21", "µM", ">", 100),
]

* * *

- subject.of.test: type 2 human 5α-reductase (HRED2) (Homo sapiens)
- protocol.description: Cell free assay of 5α-reductase, microsomes of rat 1A cells expressing type 2 isoenzyme (HRED2)
- Format: biochemical
- Set-up: expressed in transfected cells; host or cells: rat 1A cells infected with pMV7 retrovirus; microsomes
- condition.parameters: read-out: HRED2 % Inhibition @ 100 μM
property.label: inhibition at 100 µM (%)

# compound, property.label, output.unit, recorded.value
measured = [
    ("O=C1c2ccccc2C(=O)c2c1ccc(O)c2O", "inhibition at 100 µM", "%", 54),
    ("O=C1c2ccccc2C(=O)c2ccccc21", "inhibition at 100 µM", "%", 9),
    ("CCCCCCCC/C=C\\CCCCCCCC(=O)O [Oleic Acid, Oleic Acid C18:1 CIS 9]", "inhibition at 100 µM", "%", 86),
    ("Oc1ccc2c(O)c3ccccc3cc2c1O", "inhibition at 100 µM", "%", 97),
]

* * *

Measured pIC50, listed per entry.
- subject.of.test: type 2 human 5α-reductase (HRED2) (Homo sapiens, UniProt P31213)
- Sequence (P31213 whole entry): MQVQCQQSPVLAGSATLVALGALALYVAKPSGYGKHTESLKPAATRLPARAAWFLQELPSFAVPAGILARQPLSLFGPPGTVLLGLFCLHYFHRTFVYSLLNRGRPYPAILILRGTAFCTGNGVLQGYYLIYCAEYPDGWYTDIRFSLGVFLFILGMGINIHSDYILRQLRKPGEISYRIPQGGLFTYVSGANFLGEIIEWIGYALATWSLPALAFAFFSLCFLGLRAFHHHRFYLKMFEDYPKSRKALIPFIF
- protocol.description: Cell free assay of 5α-reductase, microsomes of rat 1A cells expressing type 2 isoenzyme (HRED2);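 further: labeled testosterone and its product dihydrotestosterone measured in microsomal reaction extracts via thin layer chromatography plus radioanalytic scanning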
- Assay type: biochemical
- Design: expressed in transfected cells; host or cells: rat 1A cells infected with pMV7 retrovirus; microsomes
- condition.parameters: cell free assay; Table 5 epigallocatechin derivatives; read-out: HRED2 IC50
pIC50: −log10 of the molar value.

# compound, pIC50
data = [
    ("COc1cc(C(=O)OC2Cc3c(O)cc(O)cc3OC2c2cc(O)c(O)c(O)c2)cc(OC)c1O (centres unmarked) [HZIV 75]", "< 4.00"),
    ("O=C(OC1Cc2c(O)cc(O)cc2OC1c1cc(O)c(O)c(O)c1)c1ccc2ccccc2c1 (centres unmarked) [HZIV 120]", 4.18),
    ("CCCCC=CCCCCCCCC(=O)OC1Cc2c(O)cc(O)cc2OC1c1cc(O)c(O)c(O)c1 (centres unmarked) [HZIV 160]", 4.12),
    ("CCCCCC(=O)OC1Cc2c(O)cc(O)cc2OC1c1cc(O)c(O)c(O)c1 (centres unmarked) [HZIV 169]", "< 4.00"),
    ("CN(C)c1ccc(C(=O)OC2Cc3c(O)cc(O)cc3OC2c2cc(O)c(O)c(O)c2)cc1 (centres unmarked) [HZIV 92]", "< 4.00"),
    ("CCCCCC=CCC=CCC=CCCCCC(=O)OC1Cc2c(O)cc(O)cc2OC1c1cc(O)c(O)c(O)c1 (centres unmarked) [HZIV 142]", 4.20),
    ("O=C(OC1Cc2c(O)cc(O)cc2OC1c1cc(O)c(O)c(O)c1)c1ccccc1 (centres unmarked) [HZIV 74]", "< 4.00"),
    ("O=C(OC1Cc2c(O)cc(O)cc2OC1c1cc(O)c(O)c(O)c1)C1CCCCC1 (centres unmarked) [HZIV 144]", "< 4.00"),
]
